procedureDetails: NCI Yeast Anticancer Drug Screen. Data for the cln2 rad14 strain (AID 165);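 also: 0% = growth equal to vehicle treated cultures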
experimentalContext: S. cerevisiae cln2 rad14 strain, at 50.0 µM, hits give high values
Compounds without any hit were thinned out: in the full panel of roughly 79,000, 15% have a hit.
The entries below are paired with their reported growth inhibition.
observedProperty: growth inhibition (%)

[[record]]
compound = "CCCCCCCCCCCCOP(=O)(O)OCC(N)C(=O)O (stereo unspecified)"
observedproperty = "growth inhibition"
quantitativeresult = -39.8

[[record]]
compound = "COC(=O)CC1=NNC(=O)C1"
observedproperty = "growth inhibition"
quantitativeresult = -18.1

[[record]]
compound = "COCCNC(=O)C(C)O (stereo unspecified)"
observedproperty = "growth inhibition"
quantitativeresult = 19.2

[[record]]
compound = "CCCCNC(=O)NC1CC(OC2CC(O)(C(C)=O)Cc3c(O)c4c(c(O)c32)C(=O)c2c(OC)cccc2C4=O)OC(C)C1O (stereo unspecified)"
observedproperty = "growth inhibition"
quantitativeresult = 0.8

[[record]]
compound = "CN(C)c1nnnn1Cc1ccccc1"
observedproperty = "growth inhibition"
quantitativeresult = -26.3

[[record]]
compound = "Nc1nnnn1NC(=O)c1ccccc1"
observedproperty = "growth inhibition"
quantitativeresult = -11.5

[[record]]
compound = "Oc1ccc(C=NCCN=Cc2ccc(O)cc2)cc1"
observedproperty = "growth inhibition"
quantitativeresult = -24.2

[[record]]
compound = "CCOC1OCCCC1C(OCC)C(C)C (stereo unspecified)"
observedproperty = "growth inhibition"
quantitativeresult = 9.35

[[record]]
compound = "CCCCn1cnnc1NS(=O)(=O)c1cc(C)c(Cl)cc1SCC(=O)O"
observedproperty = "growth inhibition"
quantitativeresult = 0.4

[[record]]
compound = "CN1CCC2(CC1)C(=O)N(N1CCCCCC1)C(=O)N2c1ccccc1"
observedproperty = "growth inhibition"
quantitativeresult = 4.5

[[record]]
compound = "CC(C)c1ccc(O)c(C(C)(C)C)c1"
observedproperty = "growth inhibition"
quantitativeresult = -13.9


###

procedureDetails: NCI Yeast Anticancer Drug Screen. Data for the cln2 rad14 strain (AID 165);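 also: 0% = growth equal to vehicle treated cultures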
experimentalContext: S. cerevisiae cln2 rad14 strain, at 50.0 µM, hits give high values
Compounds without any hit were thinned out: in the full panel of roughly 79,000, 15% have a hit. Calls of active or inactive are those of the source. No stated cut-off is given here; in the data, active means growth inhibition above about 70%; inactive means the rest.
The entries below are paired with their reported growth inhibition.
observedProperty: growth inhibition

[[record]]
smilesstr = "Clc1ccc(C(Cl)(Cl)C(Cl)(Cl)Cl)cc1"
result = "-61.2% (inactive)"

[[record]]
smilesstr = "F[Si](c1ccccc1)(c1ccccc1)c1cccc2ccccc12"
result = "98.8% (active)"

[[record]]
smilesstr = "CCCCOC(=O)CC1CCCCC1"
result = "-6.1% (inactive)"

[[record]]
smilesstr = "CCNS(=O)(=O)c1cc(C(=O)O)cc(C(=O)O)c1"
result = "-28.9% (inactive)"


###

The entries below are paired with their reported growth inhibition.
procedureDetails: NCI Yeast Anticancer Drug Screen. Data for the rad50 strain (AID 155);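 also: 0% = growth of vehicle-only cultures of the same strain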
experimentalContext: S. cerevisiae rad50 strain growth inhibition; at 50.0 µM; hits give high values
Compounds without any hit were thinned out: in the full panel of roughly 79,000, 15% have a hit. Calls of active or inactive are those of the source. Rule as the data show it: active = growth inhibition above about 70%; inactive = the rest. Where a SMILES comes first, the peptide text is derived from it. The star is where a group is joined. Fmoc = O=C(OCC1c2ccccc2-c2ccccc21)*; OBn = c1ccc(CO*)cc1; tBu = CC(C)(C)*
observedProperty: growth inhibition

[[record]]
compound = "COc1ccc(C(=O)C(C(=O)C(=O)NCCCNC(=O)C(=O)C(C(=O)c2ccc(OC)cc2)c2ccc(OC)cc2)c2ccc(OC)cc2)cc1 (stereo unspecified)"
observedproperty = "growth inhibition"
result = "-11.9% (inactive)"

[[record]]
compound = "Cc1ccc(S(=O)(=O)NC(C)C(=O)O)cc1 (stereo unspecified)"
observedproperty = "growth inhibition"
result = "-1.5% (inactive)"

[[record]]
compound = "Nc1ccn(CCC(COCc2ccccc2)COCc2ccccc2)c(=O)n1"
observedproperty = "growth inhibition"
result = "35.8% (inactive)"

[[record]]
compound = "CN(C)CCC1(C2=CCCC2)CC/C(=C\\c2ccc3c(c2)OCO3)C1=O (stereo unspecified)"
observedproperty = "growth inhibition"
result = "4.85% (inactive)"

[[record]]
compound = "CC(OC(C)(C)C)C(NC(=O)OCC1c2ccccc2-c2ccccc21)C(=O)NC(Cc1ccccc1)C(=O)OCc1ccccc1 (stereo unspecified) (Fmoc-Thr(tBu)-Phe-OBn; configuration not given here)"
observedproperty = "growth inhibition"
result = "-32.2% (inactive)"

[[record]]
compound = "S=C1N(c2ccc(Br)cc2)C2=Nc3ccccc3SC(=C2N=Nc2ccccc2)N1c1ccc(Cl)cc1"
observedproperty = "growth inhibition"
result = "-13.6% (inactive)"


###

procedureDetails: NCI Yeast Anticancer Drug Screen. Data for the bub3 strain (AID 167)
experimentalContext: S. cerevisiae bub3 mutant strain, at 50.0 µM, hits give high values
This is part of a sample that, as a whole, favours compounds with a hit. Of some 79,000 tested, about 15% had one in any assay.
Decide using growth inhibition: a value greater than or equal to 20% is 1 (yes), a smaller one is 0 (no).

[[record]]
molecule = "Cc1cccc(N=C2NC(=O)C(CC(=O)Nc3ccc(Cl)cc3C)S2)c1 (configuration not stated)"
qualitativelabel = "0 (no)"

[[record]]
molecule = "COC(CC1(OC)OC(=O)C=C1N)OC (configuration not stated)"
qualitativelabel = "0 (no)"

[[record]]
molecule = "[N-]=[N+]=C1C(=O)NC(=O)N2C3OC(CO[C@@H]12)C(O)C3O (some centres not stated)"
qualitativelabel = "0 (no)"

[[record]]
molecule = "c1ccc(-c2cc(-c3cc(-c4ccccc4)n[nH]3)[nH]n2)cc1"
qualitativelabel = "0 (no)"

[[record]]
molecule = "C/C=C/C(C/C=C(\\C)CO[Si](C)(C)C(C)(C)C)O[Si](C)(C)C(C)(C)C (configuration not stated)"
qualitativelabel = "0 (no)"

[[record]]
molecule = "CC(=O)OC1CCC2(C)C(CCC3C2C(=O)C(Br)C2(C)C(C(C)=O)CCC32)C1 (configuration not stated)"
qualitativelabel = "0 (no)"

[[record]]
molecule = "C[C@H]1S[C@H](c2c(F)cccc2F)n2c1nc1ccccc12"
qualitativelabel = "1 (yes)"

[[record]]
molecule = "O=C(Nc1cccc([N+](=O)[O-])c1)c1ccccc1Cl"
qualitativelabel = "0 (no)"

[[record]]
molecule = "Cn1cc(-n2[nH]c(=O)n(-c3ccccc3)c2=O)c(=O)n(C)c1=O"
qualitativelabel = "0 (no)"

[[record]]
molecule = "CCN(CC)C1=Nc2ccccc2N(c2ccccc2)C(=S)C1"
qualitativelabel = "1 (yes)"

[[record]]
molecule = "C/C(CCC(=O)O)=N\\NC(=O)COc1ccc(Cl)cc1Cl"
qualitativelabel = "0 (no)"

[[record]]
molecule = "COC1/C=C/OC2(C)Oc3c(C)c(O)c4c(O)c(c(/C=N/N(C)c5ccc([N+](=O)[O-])cc5[N+](=O)[O-])c(O)c4c3C2=O)NC(=O)C(C)=C/C=C/C(C)C(O)C(C)C(O)C(C)C(OC(C)=O)C1C (configuration not stated)"
qualitativelabel = "1 (yes)"

[[record]]
molecule = "CC(C)(C)COc1ccc2c(c1)C1=NC2=NC2=NC(=NC3=NC(=NC4=NC(=N1)c1ccc(OCC(C)(C)C)cc14)c1ccc(OCC(C)(C)C)cc13)c1ccc(OCC(C)(C)C)cc12"
qualitativelabel = "0 (no)"

[[record]]
molecule = "OCC1OC(Oc2ccccc2)C(O)C(O)C1O (configuration not stated)"
qualitativelabel = "1 (yes)"

[[record]]
molecule = "NC(=O)NC(=O)/C=C/C(=O)O"
qualitativelabel = "0 (no)"

[[record]]
molecule = "COc1ccc(CNc2cnc3ccc(N)cc3n2)cc1OC"
qualitativelabel = "0 (no)"

[[record]]
molecule = "c1ccc(CCn2c(-c3ccccn3)nc3ccccc32)nc1"
qualitativelabel = "0 (no)"


###

The entries below are paired with their reported growth inhibition.
procedureDetails: NCI Yeast Anticancer Drug Screen. Data for the sgs1 mgt1 strain (AID 161);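 also: 0% = growth of cultures given vehicle only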
experimentalContext: S. cerevisiae sgs1 mgt1 strain, at 50.0 µM, hits give high values
Description: Growth inhibition of yeast strains with defined genetic alterations is measured as a screen for potential anti-cancer activity. Selected strains with alterations in DNA damage repair or cell cycle control were exposed to compounds and growth inhibition was measured relative to vehicle treated controls. The strain used in this assay is sgs1 mgt1
Compounds without any hit were thinned out: in the full panel of roughly 79,000, 15% have a hit.
observedProperty: growth inhibition (%)

[[record]]
compound = "Cc1ccc(-n2cc(-c3ccc(Cl)cc3)c3c2N=CN2NC(c4ccco4)=NC32)cc1 (stereo not given)"
quantitativeresult = -13.6

[[record]]
compound = "Cc1ccc(S(=O)(=O)NNC(=O)Nc2cccc(C(F)(F)F)c2)cc1"
quantitativeresult = 18.1

[[record]]
compound = "CCc1ccc(N=Nc2ccc(Br)cc2)cc1"
quantitativeresult = -4.95

[[record]]
compound = "COc1ccccc1NC(=S)N1CCC(CCCC2CCN(C(=S)Nc3ccccc3OC)CC2)CC1"
quantitativeresult = -9.75

[[record]]
compound = "CC1(C)CCC2(CO)C(=C3C=CC4C5(C)CCC(O)C(C)(CO)C5CCC4(C)C3(C)CC2O)C1 (stereo not given)"
quantitativeresult = -0.75

[[record]]
compound = "CC(=O)OC1CCCN(C)C1 (stereo not given)"
quantitativeresult = 4.6

[[record]]
compound = "COC(=O)C1=C(C(=O)OC)SC(=CC#CC=C2SC(C(=O)OC)=C(C(=O)OC)S2)S1"
quantitativeresult = 9.45

[[record]]
compound = "CC1(C)[C@H]2Cc3c(ccc4c3C(=O)OC4=O)[C@@H]1C2"
quantitativeresult = 0.35

[[record]]
compound = "NNC(=O)CNc1cccc(Br)c1"
quantitativeresult = -6.1

[[record]]
compound = "N#CCc1nc2ccccc2[nH]1"
quantitativeresult = -9.35

[[record]]
compound = "Nc1nc(=S)c2ncn(C3OC(COC(=O)c4ccc([N+](=O)[O-])cc4)C(OC(=O)c4ccc([N+](=O)[O-])cc4)C3OC(=O)c3ccc([N+](=O)[O-])cc3)c2[nH]1 (stereo not given)"
quantitativeresult = -2.65

[[record]]
compound = "C/C(Nc1ccc(Cl)cc1)=C1/CCOC1=O"
quantitativeresult = 35.5

[[record]]
compound = "CN1CCC(OC(=O)C(O)C2CCCCC2)CC1 (stereo not given)"
quantitativeresult = 13.8

[[record]]
compound = "NC(=O)C1=NNc2ccccc2C(=O)N1c1ccccc1"
quantitativeresult = -20.1

[[record]]
compound = "CC1(C)C(=O)/C=C\\C(=O)C(C)(C)C(=O)/C=C\\C(=O)C(C)(C)C2=CC=C(O2)C(C)(C)C(=O)/C=C\\C1=O"
quantitativeresult = -2.4

